- measurement target: OCT2 (SLC22A2) (Homo sapiens, UniProt O15244)
- Sequence (O15244 1-555): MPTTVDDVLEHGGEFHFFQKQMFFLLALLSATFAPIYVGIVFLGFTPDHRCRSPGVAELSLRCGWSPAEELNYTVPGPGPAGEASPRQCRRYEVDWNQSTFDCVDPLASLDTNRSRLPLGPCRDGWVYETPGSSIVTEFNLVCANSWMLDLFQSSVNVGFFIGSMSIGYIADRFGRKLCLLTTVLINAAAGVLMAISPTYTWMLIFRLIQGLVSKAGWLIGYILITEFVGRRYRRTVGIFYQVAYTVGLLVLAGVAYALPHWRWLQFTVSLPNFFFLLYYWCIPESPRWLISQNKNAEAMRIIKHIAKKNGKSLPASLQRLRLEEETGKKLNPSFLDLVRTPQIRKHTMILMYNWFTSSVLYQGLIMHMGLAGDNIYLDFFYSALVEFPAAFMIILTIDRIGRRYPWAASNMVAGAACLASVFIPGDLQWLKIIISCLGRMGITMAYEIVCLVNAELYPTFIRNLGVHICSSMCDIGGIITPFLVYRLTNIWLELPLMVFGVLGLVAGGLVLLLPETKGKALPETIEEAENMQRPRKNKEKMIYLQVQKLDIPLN
- experimental details: cell-based
measurement type: IC50 (nM)
State just the number; it will be interpreted in nM.

query: Dear colleague, please send me the reported IC50 for [2H]c1ccc2cc(C(F)(F)c3nnc4ccc(-c5cnn(C)c5)nn34)ccc2n1 when you can.
result: 670
